Documented T/C across a set of molecules
System: BDF1 mice, B16 melanoma ip, median survival T/C
experiment_description: NCI In Vivo Anticancer Drug Screen. Data for tumor model B16 Melanoma (intraperitoneal) in B6D2F1 (BDF1) mice
conditions_used: endpoint: median survival time; dose: 50.0 mg/kg/injection; schedule: Q01DX009 (ip); vehicle: Klucel (hydroxypropylcellulose) (HPC); higher = longer survival
Toxic doses and inconclusive results are not listed.

{"columns": ["structure_notation", "T/C"],
 "data": [
  ["O=C1N[C@H]2[C@H](CS[C@H]2CCCCC(=O)N(CCP(c2ccccc2)c2ccccc2)CCP(c2ccccc2)c2ccccc2)N1", "120 % of control"]
]}

Now for another entry.
Read the entry NN(CC1=COc2ccccc2O1)Cc1ccccc1 and write its reported T/C.
91 % of control

====

Test system: BDF1 mice, B16 melanoma ip, median survival T/C
experiment_description: NCI In Vivo Anticancer Drug Screen. Data for tumor model B16 Melanoma (intraperitoneal) in B6D2F1 (BDF1) mice
conditions_used: endpoint: median survival time; dose: 200.0 mg/kg/injection; schedule: Q01DX009 (ip); vehicle: Klucel (hydroxypropylcellulose) (HPC); higher = longer survival
Toxic doses and inconclusive results are not listed.
measured_property: T/C

Reference set (2 entries):
{"columns": ["compound", "T/C"],
 "data": [
  ["CCCCCOc1ccc(C(=O)CC(=O)OCC)cc1", "106 % of control"],
  ["CCCCNC(=O)Nc1cc(C)ccc1C", "100 % of control"]
]}

Please supply the value of reported T/C for the item CCC(=O)c1ccccc1N
98 % of control

Dear colleague, please send me the reported T/C for COC(=O)C1(C)CCC(c2ccc(OC)cc2)CC1=O (configuration not stated) when you can.
87 % of control

Consider the compound O=C1C=CC(=O)C2=C1C1c3ccccc3C2([N+](=O)[O-])c2ccccc21 and give its recorded T/C.
97 % of control

Return value of T/C for input CCOC(=O)C(OCC)P(=O)(OCC)OCC (configuration not stated) , no commentary.
102 % of control

Check the records and state T/C for CCOc1ccc(N2CSC(=S)N(c3ccc(OCC)cc3)C2)cc1
88 % of control

====

Test system: BDF1 mice, B16 melanoma ip, median survival T/C
experiment_description: NCI In Vivo Anticancer Drug Screen. Data for tumor model B16 Melanoma (intraperitoneal) in B6D2F1 (BDF1) mice
conditions_used: endpoint: median survival time; dose: 25.0 mg/kg/injection; schedule: Q01DX009 (ip); vehicle: saline with Tween-80; higher = longer survival
Toxic doses and inconclusive results are not listed.
measured_property: T/C

// solved cases for T/C follow
{"columns": ["structure_notation", "T/C"],
 "data": [
  ["CCNC(=O)OCc1c(COC(=O)NCC)c(-c2ccc(Cl)c(Cl)c2)n2c1CCC2", "90 % of control"],
  ["FC(F)(F)c1nc2nc(Cl)c(Cl)nc2[nH]1", "114 % of control"],
  ["CCN(CC)CCOC(=O)c1ccc(NC(=O)Nc2ccc(C(=O)OCCN(CC)CC)cc2)cc1", "97 % of control"],
  ["CCCCC(CCCC)c1ccccn1", "102 % of control"],
  ["CC(=O)CC(C)=O.CC(=O)CC(C)=O.[Co]", "91 % of control"]
]}

Return reported T/C. Input compound: Nc1cccc(NC=O)c1
97 % of control

Give reported T/C value for Cc1ccc(N=NN(C)C)cc1
115 % of control

Output T/C of Cn1nc(N)c2ncc(-c3ccc(Cl)cc3)nc21
90 % of control

====

System: BDF1 mice, B16 melanoma ip, median survival T/C
experiment_description: NCI In Vivo Anticancer Drug Screen. Data for tumor model B16 Melanoma (intraperitoneal) in B6D2F1 (BDF1) mice
conditions_used: endpoint: median survival time; dose: 200.0 mg/kg/injection; schedule: Q01DX009 (ip); vehicle: saline; higher = longer survival
Inconclusive results and toxic doses are left out.
Here, each record is paired with measured T/C data.

// known answers, use as guide
{"columns": ["compound", "T/C"],
 "data": [
  ["C(CSC1=NCCN1)CSC1=NCCN1", "107 % of control"],
  ["C[N+]1(C)C2CC(=O)CC1C1CC12 (centres undefined) (tested in a mixture with another compound)", "100 % of control"],
  ["Clc1cc(Cl)c(C[N+]23CN4CN(CN(C4)C2)C3)cc1Cl", "122 % of control"]
]}

Now look at this one.
# return recorded T/C for input CC(=O)CC(=O)Nc1ccc(C)c(C)c1
89 % of control

====

System: BDF1 mice, B16 melanoma ip, median survival T/C
experiment_description: NCI In Vivo Anticancer Drug Screen. Data for tumor model B16 Melanoma (intraperitoneal) in B6D2F1 (BDF1) mice
conditions_used: endpoint: median survival time; dose: 100.0 mg/kg/injection; schedule: Q04DX003 (ip); vehicle: Klucel (hydroxypropylcellulose) (HPC); higher = longer survival
Inconclusive results and toxic doses are left out.
measured_property: T/C

Recorded T/C, per entry:
{"columns": ["compound", "T/C"],
 "data": [
  ["O=C1CCC(N2C(=O)c3ccccc3C2=O)C(=O)N1 (centres undefined)", "94 % of control"],
  ["NC(=O)Oc1ccc(Cc2ccccc2)cc1", "95 % of control"],
  ["COC(=O)C1C2CC(C3OC23)C1C(=O)OC (centres undefined)", "94 % of control"],
  ["COC(=O)C(=O)[C@@H](O)[C@H](O)[C@@H](O)CO", "94 % of control"],
  ["CC(C)OC(=O)Nc1ccc(-c2ccc(NC(=O)OC(C)C)cc2)cc1", "109 % of control"]
]}

Determine its reported T/C: COc1ccc(/C=C2\CCC3C(=O)CCCC3(C)C2=O)cc1 (centres undefined)
94 % of control

Answer with the recorded T/C for the compound listed here: COc1ccc(/C=C\C(=O)/C=C/c2ccc(OC)cc2)cc1
97 % of control

Give a short answer stating reported T/C for NC(=O)C1(N2CCCC2)CCN(Cc2ccccc2)CC1 .
100 % of control

// fetch T/C given entry CN(Cc1ccccc1)Cc1ccccc1
97 % of control

====

Test system: BDF1 mice, B16 melanoma ip, median survival T/C
experiment_description: NCI In Vivo Anticancer Drug Screen. Data for tumor model B16 Melanoma (intraperitoneal) in B6D2F1 (BDF1) mice
conditions_used: endpoint: median survival time; dose: 12.5 mg/kg/injection; schedule: Q01DX009 (ip); vehicle: saline; higher = longer survival
Inconclusive results and toxic doses are left out.
measured_property: T/C

Recorded T/C, per entry:
{"columns": ["molecule", "assayed_system", "T/C"],
 "data": [
  ["COC(=O)CC(N)C(=O)O (configuration not stated)", "BDF1 mice, B16 melanoma ip, median survival T/C", "101 % of control"],
  ["CN(C)C1=NC(=O)C(c2ccccc2)O1 (configuration not stated)", "BDF1 mice, B16 melanoma ip, median survival T/C", "117 % of control"],
  ["C[N+](C)(C)C1CC1", "BDF1 mice, B16 melanoma ip, median survival T/C", "105 % of control"],
  ["O=S(=O)(O)c1ccc(-c2c3nc(c(-c4ccc(S(=O)(=O)O)cc4)c4ccc([nH]4)c(-c4ccc(S(=O)(=O)O)cc4)c4nc(c(-c5ccc(S(=O)(=O)O)cc5)c5ccc2[nH]5)C=C4)C=C3)cc1", "BDF1 mice, B16 melanoma ip, median survival T/C", "105 % of control"],
  ["CNC(=O)Oc1cccn(C(=O)NC)c1=O", "BDF1 mice, B16 melanoma ip, median survival T/C", "86 % of control"]
]}

Answer with the recorded T/C for the molecule listed here: N#CNN=Nc1cc(Cl)c(Cl)c(Cl)c1
120 % of control

Retrieve T/C measured for NC(CSC(c1ccccc1)(c1ccccc1)c1ccccc1)C(=O)O (configuration not stated) and print it.
120 % of control

Kindly indicate its recorded T/C. Item: Nc1ncnc2c1ncn2C1OC(COP(=O)(O)O)C(O)C1O (configuration not stated)
124 % of control

Please report the measured T/C for CC(C)=CC(=O)OCC[N+](C)(C)C
102 % of control

Given C[N+]1(C)CCCC1 , respond with its T/C.
100 % of control

Input COc1nc(=O)n(C2C=CC(=O)O2)cc1F (configuration not stated) , output reported T/C.
95 % of control

Look up and report measured T/C for this entry: O=S(=O)(O)c1ccc(/C2=c3\cc/c([n-]3)=C(\c3ccc(S(=O)(=O)O)cc3)c3ccc([n-]3)/C(c3ccc(S(=O)(=O)O)cc3)=c3/cc/c([n-]3)=C(\c3ccc(S(=O)(=O)O)cc3)c3ccc2[n-]3)cc1.[Co]
108 % of control

Note down T/C recorded for CNCCC=C1c2ccccc2CCc2ccccc21
97 % of control

Note T/C for the molecule shown: COC1N(C2CC(O)C(CO)O2)C(=O)NC(=O)C1(F)Br (configuration not stated)
108 % of control

Give the value of T/C reported for the following: CNNC(=O)NC
100 % of control

Write down T/C measured for item Nc1c(Cl)cc(C(=O)NC2CC2)cc1Cl
102 % of control

Dear colleague, please send me the reported T/C for CCCOP(OCCC)OCCC when you can.
118 % of control

Supply reported T/C belonging to this molecule: FC(F)(F)c1ccc2c(c1)N(CCCNCCN1CCOCC1)c1ccccc1S2
100 % of control

Supply T/C value. Item: CCCC1(CCC)CN(C)C1=O
91 % of control

Hello, please tell me recorded T/C for this one: [I][Ga]([I])[I]
87 % of control

Supply T/C value. Item: CNC(=O)ON(C(C)=O)C(=O)NC
87 % of control

Note T/C for the molecule shown: CN1CCC=C(C(=O)N2c3ccccc3Sc3ccc(Cl)cc32)C1
89 % of control
